molecular target: 7 AMA-1 allelic proteins; test: dot blot against 7 AMA-1 allelic proteins
assay_metric: Strain reactivity (of 7 AMA-1 allelic proteins)
Kindly provide the number alone.

As a guide, the following entries are already answered.
Monoclonal 1E10 (antibody, V domains shown) VH: EVQLQESGAELAKPGASVKLSCKASGYTFTNYLMHWIKQRPGQGLEWIGYINHGSGYTNYNQKFIDRATLTADKSSSTAYMQLRSLTYEDSAVYYCVHGYFDVWGTGTTVTVSS VL: QIVLTQSPTIMSASPGEKVTMTCSASSSVTYMHWYQQKPGTSPKRWIYDTSKLASGVPARFSGSGSGTSYSLTISSMEAEDAATYYCHQRSSYPTFGGGTKLEIKR
7
Monoclonal 4E11 (antibody, V domains shown) VH: EVQLQESGPGLVRPSQSLSITCTVSGFSLPLYGVHWVRQSPGKGLEWLGVIWSGGSTDYNAAFVSRLSISKDNSKSQVFFEMNSLQADDTATYYCARNNGYYVDAMDYWGQGTSVTVSS VL: DVVMTQTPLSLPVSLGDQASISCRSSQSLVHSNGNTYLHWYLQKPGQSPKLLIFKVSNRFSGVPDRFSGSGSGTDFTLQISRVEAEDLGFYFCSQSTHVPTFGGGTKLEIKR
5

Can you share its Strain reactivity (of 7 AMA-1 allelic proteins)? I mean this binder: Monoclonal 1B10 (antibody, V domains shown) VH: EVQLQESGPGLVQPSQSLSITCTVSGFSLNMYGVHWVRQSPGKGLEWLGVIWSGGTTDYNAAFISRLSINRDNSKSQVFFKMNSLQTDDTAIYYCVRNNGYYVDAMDYWGQGTSVAVSS VL: DVVMTQTPLSLPVSLGDQASISCRSSQSLVHSNGNTYLHWYLQRPGQSPKLLIYKVSNRFSGVPDRFSGSGSGTDFTLKISRVEAEDLGVYFCSQSTLGPTFGGGTKLEMQR
5

Fill in: Strain reactivity (of 7 AMA-1 allelic proteins) of Monoclonal 4E8 (antibody, V domains shown) VH: EVQLQESGPGLVQPSQSLSITCTVSDFSLIMYGVHWVRQSPGKGLEWLGVIWSGGSTDYNAAFISRLSISKDNSKSQVFFKMNSLQADDTAIYYCARNNGYYVDAMDYWGQGTSVTVSS VL: DVVMTQTPLSLPVSLGDQASISCRSSQSLVHNNGNTYLHWYLQKPGQSPKLLIYKVSNRFFGVPDRFSGSGSGTDFTLKISRVEAEDLGVYFCSQSTHVPTFGGGTKLEIKR is ___
6
